- system: p38α (unphosphorylated, recombinant) (UniProt Q16539 1-360)
- Sequence (Q16539 whole entry): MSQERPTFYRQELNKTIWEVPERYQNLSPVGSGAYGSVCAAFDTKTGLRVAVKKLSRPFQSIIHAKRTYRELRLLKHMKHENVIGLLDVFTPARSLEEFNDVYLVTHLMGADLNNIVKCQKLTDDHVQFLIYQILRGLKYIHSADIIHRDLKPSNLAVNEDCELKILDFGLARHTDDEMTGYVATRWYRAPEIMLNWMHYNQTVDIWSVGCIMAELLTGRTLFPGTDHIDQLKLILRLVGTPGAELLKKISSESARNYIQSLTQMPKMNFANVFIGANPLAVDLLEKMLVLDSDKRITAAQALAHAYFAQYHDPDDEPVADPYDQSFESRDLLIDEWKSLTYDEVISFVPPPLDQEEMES
- experimentalProtocol: fluorescence polarisation
No end group written: not given here.
endpoint: Kd (µM)

{TAMRA}-GKKRNPGLKIPK [MKK6-derived 12-residue peptide, TAMRA-labeled] :: 3.9
